target: CRP (Rattus norvegicus, UniProt P48199)
Construct: from tissue; host or cells: rat serum
Sequence (P48199 20-230): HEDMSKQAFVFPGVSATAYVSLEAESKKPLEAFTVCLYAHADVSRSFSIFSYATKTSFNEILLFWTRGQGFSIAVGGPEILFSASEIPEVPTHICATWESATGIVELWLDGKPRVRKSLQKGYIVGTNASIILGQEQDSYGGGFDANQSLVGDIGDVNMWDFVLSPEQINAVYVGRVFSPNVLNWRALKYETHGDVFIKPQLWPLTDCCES
assay-method-text: Reduction by PC of K+/R+ phage protection in vitro
Type: biochemical
test-settings: R+19/14 clone
pIC50: −log10 of the molar value.
parameter-measured: pIC50

Sure, the documented pIC50 for C[N+](C)(C)CCOP(=O)(O)O is ~4.30
